// protein stability index lookup, one value per entry
B1: CHCHD6 (parent)
chain: MYKLSSEQFHEAASKMESTIKPRR

variants of: B1; test: protein stability index of a GFP-peptide fusion (GPS, HEK-293T) (PSI 1-6); higher = more stable; settings: c terminus: a fixed tail appended;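 also: lentivirally expressed fusions sorted by FACS into six bins by GFP to DsRed ratio, PSI derived from sequencing read proportions per bin multiplied by bin number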
Simply state the number, no unit and no words.

Illustrative cases are given below, each with its answer.
VARIANT_ANNOTATION | protein stability index
T19V | 3.82
L4W | 3.77
S6W | 2.62
K21I | 3.44
K3Q | 4.17
Y2T | 3.29
H10E | 4.24
E11N | 3.4

Problem: Can you share its protein stability index? I mean this variant: Y2L
Solution: 4.34

Problem: Can you share its protein stability index? I mean this variant: T19A
Solution: 3.78

Problem: Can you share its protein stability index? I mean this variant: A13L
Solution: 3.09
